# Lookup of reported Activity keyed by entry
Tested on: Mus musculus
Protocol: Toxicity in sc implanted mouse L1210 cells allografted C3H/DBA2 F1 hybrid hybrid mouse assessed as optimum dose required to increase life span treated ip after 24 hrs after tumor inoculation and continued for 5 days
Type: organism-based
Condition set: in vivo
Answer with a number only, understood to be in mg/kg.

The following molecules have reported results that may help.
Enquiry: Output measured Activity for this item: `COCCS(=O)(=O)Nc1ccc(Nc2c3ccccc3nc3ccccc23)cc1.Cl`
Return: 280

Enquiry: Report Activity, nothing else, for this molecule: `Br.CN1CCN(c2ccc(Nc3c4ccccc4nc4ccccc34)cc2)CC1`
Return: 50

Enquiry: Annotate the molecule `CS(=O)(=O)N1CCN(c2ccc(Nc3c4ccccc4nc4ccccc34)cc2)CC1.Cl` with its measured Activity.
Return: 200

Next:
Enquiry: Output Activity of `O=[N+]([O-])c1ccc2c(Nc3ccc(N4CCNCC4)cc3)c3ccccc3nc2c1`
Return: 15

Enquiry: Tell us which Activity value is on record for `CC(=O)NCCS(=O)(=O)Nc1ccc(Nc2c3ccccc3nc3ccccc23)cc1.Cl`
Return: 50

Enquiry: Find the measured Activity of Br.CS(=O)(=O)N(CC(O)CO)c1ccc(Nc2c3ccccc3nc3ccccc23)cc1 (stereo not drawn) and report it.
Return: 65

Enquiry: Quickly give me recorded Activity for `CNC(=O)Nc1ccc(Nc2c3ccccc3nc3ccccc23)c(OC)c1.Cl`
Return: 50

Enquiry: For the molecule `Cl.NC(=O)N1CCN(c2ccc(Nc3c4ccccc4nc4ccccc34)cc2)CC1` , give its measured Activity value.
Return: 37

Enquiry: Return value of Activity for input `Br.c1ccc2c(Nc3ccc(N4CCNCC4)cc3)c3ccccc3nc2c1` , no commentary.
Return: 15

====

Test system: Mus musculus
Protocol: Toxicity in sc implanted mouse L1210 cells allografted C3H/DBA2 F1 hybrid hybrid mouse assessed as optimum dose required to increase life span treated ip after 24 hrs after tumor inoculation and continued for 5 days
Format: organism-based
Condition set: in vivo
Hi, to clarify the labels: true covers Activity from 100 mg/kg upward, false covers anything below 100 mg/kg.

Enquiry: Assess whether reported Activity for `COC(=O)CCS(=O)(=O)Nc1ccc(Nc2c3ccccc3nc3ccccc23)cc1.Cl` sits at 100 mg/kg or higher.
Return: true

Enquiry: Please indicate if the recorded Activity for `Cl.NC(=O)NCCS(=O)(=O)Nc1ccc(Nc2c3ccccc3nc3ccccc23)cc1` meets or exceeds 100 mg/kg.
Return: true

Enquiry: Please check the record `COc1cc(NS(C)(=O)=O)ccc1Nc1c2ccccc2nc2c(C(=O)N[C@H]3[C@@H](OC)O[C@H](COC(C)=O)[C@@H](OC(C)=O)[C@@H]3OC(C)=O)cccc12.Cl` and state if its Activity is at or above 100 mg/kg.
Return: true

Next:
Enquiry: Answer whether Activity of COc1cc(NS(C)(=O)=O)ccc1Nc1c2ccc(I)cc2nc2c(OCC(O)CO)cccc12.Cl (centres undefined) is greater than or equal to 100 mg/kg.
Return: false

Enquiry: Check the entry `CCOC(=O)NNc1ccc(Nc2c3ccccc3nc3ccccc23)cc1.Cl` : does Activity equal or exceed 100 mg/kg?
Return: false

====

Test system: Mus musculus
Protocol: Toxicity in sc implanted mouse L1210 cells allografted C3H/DBA2 F1 hybrid hybrid mouse assessed as optimum dose required to increase life span treated ip after 24 hrs after tumor inoculation and continued for 5 days
Type: organism-based
Condition set: in vivo
# binarize Activity: threshold 100 mg/kg inclusive, high side y, low side n

Enquiry: // inclusive: Activity at least 100 mg/kg? input: `COc1ccc(Nc2c3ccccc3nc3cc(N)ccc23)cc1.Cl`
Return: n

Enquiry: Test whether the compound `CCOC(=O)N1CCN(C(=O)Nc2ccc(Nc3c4ccccc4nc4ccccc34)cc2)CC1.Cl` records Activity of 100 mg/kg or higher.
Return: n

Enquiry: Answer whether Activity of `COC(=O)NNC(=O)Nc1ccc(Nc2c3ccccc3nc3ccccc23)cc1.Cl` is greater than or equal to 100 mg/kg.
Return: y

Enquiry: Hello, I need to know if `COc1cc(NS(C)(=O)=O)ccc1Nc1c2ccccc2nc2c(C(N)=O)cccc12.Cl` has measured Activity not below 100 mg/kg. Thanks!
Return: n

Enquiry: Say whether `Cl.O=C1CNC(=O)N1CCS(=O)(=O)Nc1ccc(Nc2c3ccccc3nc3ccccc23)cc1` shows Activity of 100 mg/kg or more.
Return: y

Enquiry: Is reported Activity greater than or equal to 100 mg/kg here: COc1cc(NS(C)(=O)=O)ccc1Nc1c2ccccc2nc2c(OCC(O)CO)cccc12.Cl (centres undefined)
Return: n

Enquiry: Item Cl.O=C(Nc1ccc(Nc2c3ccccc3nc3ccccc23)cc1)OCC(O)CO (centres undefined) with Activity of 100 mg/kg or above?
Return: n

Enquiry: Is the recorded value of Activity equal to or greater than 100 mg/kg for this compound? `CC(=O)NCCCS(=O)(=O)Nc1ccc(Nc2c3ccccc3nc3ccccc23)cc1.Cl`
Return: y

Enquiry: Form field: Activity at least 100 mg/kg? Entry: `Cl.O=C1CCS(=O)(=O)N1c1ccc(Nc2c3ccccc3nc3ccccc23)cc1`
Return: y

Enquiry: Can `Br.COc1cc(NS(C)(=O)=O)ccc1Nc1c2ccccc2nc2c(CCC(N)=O)cccc12` be said to have Activity at or above 100 mg/kg?
Return: n

Others:
Enquiry: Reported Activity reaches at least 100 mg/kg for `CNC(=O)c1cccc2c(Nc3ccc(NS(C)(=O)=O)cc3OC)c3ccccc3nc12.Cl` ?
Return: n

Enquiry: Has `Cl.NC(=O)CCS(=O)(=O)Nc1ccc(Nc2c3ccccc3nc3ccccc23)cc1` a recorded Activity greater than or equal to 100 mg/kg?
Return: y

Source: ChEMBL document CHEMBL3272270
